# subjectOfTest: human ether-à-go-go-related gene (hERG) potassium channel (human, UniProt Q12809)
# Sequence (Q12809 whole entry, looked up): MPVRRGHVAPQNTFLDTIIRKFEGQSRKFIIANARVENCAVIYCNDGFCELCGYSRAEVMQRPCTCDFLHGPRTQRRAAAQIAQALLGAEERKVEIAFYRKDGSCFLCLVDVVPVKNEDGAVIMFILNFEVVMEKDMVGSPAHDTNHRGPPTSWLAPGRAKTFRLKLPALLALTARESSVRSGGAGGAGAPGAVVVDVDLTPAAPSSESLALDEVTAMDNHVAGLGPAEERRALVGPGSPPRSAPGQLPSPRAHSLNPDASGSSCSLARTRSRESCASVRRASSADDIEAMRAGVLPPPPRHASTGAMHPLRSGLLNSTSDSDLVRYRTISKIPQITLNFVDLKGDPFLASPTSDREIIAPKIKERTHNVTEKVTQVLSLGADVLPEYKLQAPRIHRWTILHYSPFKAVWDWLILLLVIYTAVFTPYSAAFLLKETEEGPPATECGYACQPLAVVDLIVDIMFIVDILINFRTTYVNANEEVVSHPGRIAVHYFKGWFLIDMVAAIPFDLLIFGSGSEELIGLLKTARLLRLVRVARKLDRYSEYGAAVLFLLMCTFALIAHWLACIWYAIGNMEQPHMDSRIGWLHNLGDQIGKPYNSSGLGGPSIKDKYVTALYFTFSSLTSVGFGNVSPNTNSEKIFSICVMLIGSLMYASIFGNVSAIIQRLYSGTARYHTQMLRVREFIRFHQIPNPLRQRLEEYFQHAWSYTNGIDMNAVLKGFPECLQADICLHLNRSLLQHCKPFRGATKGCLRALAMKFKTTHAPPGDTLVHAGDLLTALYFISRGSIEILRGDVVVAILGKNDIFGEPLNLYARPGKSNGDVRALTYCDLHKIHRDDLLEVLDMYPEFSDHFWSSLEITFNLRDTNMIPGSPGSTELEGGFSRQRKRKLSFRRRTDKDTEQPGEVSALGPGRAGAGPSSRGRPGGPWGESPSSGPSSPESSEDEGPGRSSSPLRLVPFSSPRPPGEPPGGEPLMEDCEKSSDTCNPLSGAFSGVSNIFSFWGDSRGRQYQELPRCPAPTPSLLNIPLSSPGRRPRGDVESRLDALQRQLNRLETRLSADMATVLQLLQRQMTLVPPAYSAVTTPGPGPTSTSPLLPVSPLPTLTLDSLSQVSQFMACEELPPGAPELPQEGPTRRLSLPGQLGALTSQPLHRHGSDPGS
# procedureDetails: primary screen, population patch clamp on CHO cells stably expressing hERG; higher = less effect of the substance;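 note: peak tail current of the secondary pulse compared with the same well before compound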
The campaign covered roughly 310,000 compounds. About 14,000 (4.5%) showed an effect of 50% or more. The effect is printed as a negative number. The list comes from a sample in which strong results are over-represented; it also holds close analogues and randomly drawn compounds.
Parameter: hERG current change (%, negative = inhibition) at 10uM. Scope: all listed entries.
Give your result in % as a bare value.

Completed entries (count: 5):
[
  {
    "molecule": "COc1ccccc1S(=O)Cc1ccc(C(=O)NCc2ccccc2Cl)o1 (centres unmarked)",
    "endpointValue": -19.5
  },
  {
    "molecule": "O=[N+]([O-])c1ccccc1S(=O)(=O)N1CCN(C2CCN(Cc3ccccc3)CC2)CC1",
    "endpointValue": -51.9
  },
  {
    "molecule": "Cc1ccc(C)c(COc2coc(CN3CCN(C(=O)c4ccco4)CC3)cc2=O)c1",
    "endpointValue": -100
  },
  {
    "molecule": "O=C(NCCc1ccc(Cl)cc1)c1ccc(CS(=O)Cc2ccccc2Cl)o1 (centres unmarked)",
    "endpointValue": -30
  },
  {
    "molecule": "Cc1cccc(COc2coc(CN3CCN(C(=O)c4ccco4)CC3)cc2=O)c1",
    "endpointValue": -50.7
  }
]

Qu. Can you look up the measured hERG current change (%, negative = inhibition) at 10uM of O=C(NCCCc1ccccc1)c1ccc(CS(=O)Cc2ccccc2Cl)o1 (centres unmarked) for me?
Ans. -76.2

Qu. Entry O=S(=O)(c1ccccc1)N1CCN(Cc2ccc(Cl)cc2)CC1 : reported hERG current change (%, negative = inhibition) at 10uM = ?
Ans. -22.7

Qu. # lookup: hERG current change (%, negative = inhibition) at 10uM of O=[N+]([O-])c1ccccc1S(=O)(=O)N1CCN(C2CCCC2)CC1
Ans. 0.58

Qu. Consider the molecule shown here: COc1ccccc1S(=O)Cc1ccc(C(=O)NCCc2ccc(Cl)cc2)o1 (centres unmarked) What is its recorded hERG current change (%, negative = inhibition) at 10uM?
Ans. -65.4

Qu. Item O=S(=O)(c1ccc(Cl)cc1)N1CCN(C2CCCCCC2)CC1 has what recorded hERG current change (%, negative = inhibition) at 10uM?
Ans. -17.3

Qu. Give its hERG current change (%, negative = inhibition) at 10uM value. Item: CC(C)(C)NC(=O)COc1coc(CN2CCN(C(=O)c3ccco3)CC2)cc1=O
Ans. 20.1

Qu. For the molecule shown here, O=C(NCCc1ccccc1)c1ccc(CS(=O)Cc2cccc(Cl)c2)o1 (centres unmarked) , give the reported hERG current change (%, negative = inhibition) at 10uM.
Ans. -6.23

Qu. I have this molecule here, Cn1c(=O)c(=O)n(C)c2cc(S(=O)(=O)N3CCC(Cc4ccccc4)CC3)ccc21 , and I need its recorded hERG current change (%, negative = inhibition) at 10uM.
Ans. -10.9

Qu. Which value of hERG current change (%, negative = inhibition) at 10uM has been reported for Cc1ccc(C)c(OCC(=O)N2CCN(C(=O)c3ccco3)CC2)c1 in the records?
Ans. -8.23

Qu. I'd like to know its hERG current change (%, negative = inhibition) at 10uM. The molecule in question is O=S(=O)(c1ccccc1)N1CCN(Cc2ccccc2)CC1
Ans. 19.3
